Provide the reported pest or weed control at 500 g/ha of each item.
System: Veronica persica (VERPE)
Assay: Post-emergence glasshouse test, visual injury, VERPE
Type: in vivo
Conditions: 336 h, Table 3, post-emergence, 500 g/ha, 14±1 days post application
Give bare numbers, in %.

CCOCCCNc1ncc(-c2cc(C)no2)c(C(C)(C)C)n1 ... 0

Working through the 4 compounds below one at a time, give pest or weed control at 500 g/ha for each.
1. CCN1CCN(c2ncc(-c3cc(C)no3)c(C(C)C)n2)CC1
2. Cc1cc(-c2cnc(N3CCC(O)CC3)nc2C2CC2)on1
3. COc1ccccc1CNc1ncc(-c2cc(C)no2)c(-c2ccc(C)o2)n1
4. Cc1cc(-c2cnc(NCc3ccc(F)cc3)nc2C2CC2)on1

-- reply
1. 0
2. 40
3. 80
4. 95

Go through the items and report each one's pest or weed control at 500 g/ha.
1. COCCCNc1ncc(-c2cc(C)no2)c(-c2ccc(C)o2)n1
2. C=COCCCNc1ncc(-c2cc(C)no2)c(C(C)(C)C)n1
3. Cc1cc(-c2cnc(N3CCCCC3)nc2C(C)C)on1

-- reply
[50, 0, 0]

Look at each compound and report its pest or weed control at 500 g/ha.
1. COc1ccc(CCNc2ncc(-c3cc(C)no3)c(C(C)C)n2)cc1OC
2. Cc1cc(-c2cnc(NC3CCC3)nc2C(C)C)on1
3. COc1ccc(CCNc2ncc(-c3cc(C)no3)c(C3CC3)n2)cc1OC
4. Cc1cc(-c2cnc(NCCN3CCCC3=O)nc2C2CC2)on1
5. Cc1cc(-c2cnc(NCc3ccc(F)cc3)nc2C(C)(C)C)on1

-- reply
[100, 100, 99, 0, 80]

###

Tested on: Echinochloa crus-gaffi (ECHCG)
Assay: Post-emergence glasshouse test, visual injury, ECHCG
Type: in vivo, Echinochloa crus-galli
Settings: 336 h, Table 3, post-emergence, 125 g/ha, 14±1 days post application
Please provide measured pest or weed control at 125 g/ha for the entries that follow.
Numbers only, in %.

Sample records with pest or weed control at 125 g/ha:
Cc1cc(-c2cnc(NCC3CCCC3)nc2C(C)C)on1 ... 50
Cc1cc(-c2cnc(NC(C)C)nc2C(F)(F)F)on1 ... 0
Cc1cc(-c2cnc(NCc3ccc(F)cc3)nc2C)on1 ... 30
Cc1cc(-c2cnc(NCc3ccc(F)cc3)nc2C2CCC2)on1 ... 0
Cc1cc(-c2cnc(NCc3ccccc3F)nc2C(F)(F)F)on1 ... 20
Cc1cc(-c2cnc(NCc3ccc(F)cc3)nc2C(C)C)on1 ... 80

// input: 4 compounds below; output: pest or weed control at 125 g/ha for each
1. Cc1cc(-c2cnc(N3Cc4ccccc4C3=N)nc2C(C)C)on1
2. Cc1cc(-c2cnc(NC3CC3)nc2C(F)(F)F)on1
3. Cc1cc(-c2cnc(NC3CCCc4sc(Cl)cc43)nc2C(C)C)on1 (stereo not shown)
4. Cc1cc(-c2cnc(N)nc2C(F)(F)F)on1

-- reply
20
20
60
0

###

Tested on: Amaranthus retroflexus (AMARE)
Experiment: Post-emergence glasshouse test, visual injury, AMARE
Format: in vivo
Details: 336 h, Table 3, post-emergence, 125 g/ha, 14±1 days post application
Description: Seeds of a variety of test species are grown in a sandy loam soil mixture, Lolium multiflorum (LOLMU), Amaranthus retroflexus (AMARE), Echinochloa crus-gaffi (ECHCG), Veronica persica (VERPE), Glycine max (GLXMA), Oryza sativa (ORYSA), Zea mays (ZEAMX), spring wheat (TRZAS), Ipomoea hederacea (IPOHE), Ipomoea purpurea (PHBPU), Stellaria media (STEME), Solanum nigrum (SOLNI), Digitaria sanguinalis (DIGSA), Setaria italica (SETIT), Alopecurus myosuroides (ALOMY) and Avena fatua (AVEFA). […]
Mark each entry Satisfied if its pest or weed control at 125 g/ha sits below 80%, and Not satisfied for all others.

Reference set, count: 5
CCN(C)c1ncc(-c2cc(C)no2)c(C(C)C)n1 ... Satisfied
Cc1cc(-c2cnc(NC(C)C)nc2C(C)C)on1 ... Not satisfied
Cc1cc(-c2cnc(N(C)C3CCCC3)nc2C(C)C)on1 ... Not satisfied
Cc1cc(-c2cnc(NCc3cccc(Cl)c3)nc2C(C)C)on1 ... Satisfied
Cc1cc(-c2cnc(N(C)C3CCCC3)nc2C(F)(F)F)on1 ... Satisfied

-- ask State whether 80% exceeds pest or weed control at 125 g/ha recorded for `Cc1cc(-c2cnc(N3CCN(c4ncccn4)CC3)nc2-c2ccc(C)o2)on1` .
-- reply Satisfied

-- ask Is it true that pest or weed control at 125 g/ha reported for `CCc1nc(NC2CCCC2)ncc1-c1cc(C)no1` is less than 80%?
-- reply Satisfied

-- ask Say whether its pest or weed control at 125 g/ha is strictly beneath 80%. Entry: `Cc1cc(-c2cnc(NCc3ccc(F)cc3)nc2C(F)F)on1`
-- reply Satisfied

-- ask For this compound, is pest or weed control at 125 g/ha lower than 80%? `Cc1cc(-c2cnc(NCc3cccc(F)c3)nc2C(F)(F)F)on1`
-- reply Not satisfied

-- ask Confirm or reject: pest or weed control at 125 g/ha of Cc1cc(-c2cnc(NC3CCc4sc(Cl)cc43)nc2C(C)C)on1 (centres unmarked) lies strictly below 80%
-- reply Not satisfied

-- ask API: query returns whether the compound falls strictly under 80% in pest or weed control at 125 g/ha. Query: `Cc1cc(-c2cnc(NC3CCOCC3)nc2C(F)(F)F)on1`
-- reply Satisfied

-- ask Decide: pest or weed control at 125 g/ha of `Cc1cc(-c2cnc(NCC3CCCCC3)nc2C(C)C)on1` strictly below 80%?
-- reply Satisfied

-- ask pest or weed control at 125 g/ha under 80%? Item: `Cc1cc(-c2cnc(NCc3cccc(F)c3)nc2C2CC2)on1`
-- reply Not satisfied

-- ask Dear reviewer, please state whether `Cc1cc(-c2cnc(NCC3CCC3)nc2C(C)C)on1` has pest or weed control at 125 g/ha strictly beneath 80%.
-- reply Satisfied

-- ask Lab note: confirm whether the reported pest or weed control at 125 g/ha for this compound is below 80%, equality not counting. compound: `Cc1cc(-c2cnc(NCc3cccnc3)nc2C(F)(F)F)on1`
-- reply Satisfied

-- ask Dear reviewer, please state whether `Cc1cc(-c2cnc(NCc3ccc(F)cc3)nc2C(F)(F)F)on1` has pest or weed control at 125 g/ha strictly beneath 80%.
-- reply Not satisfied

-- ask Lab note: pest or weed control at 125 g/ha threshold 80%. Does this compound come in strictly under it? `Cc1cc(-c2cnc(NCc3ccc(Cl)cc3)nc2C(C)C)on1`
-- reply Not satisfied

-- ask Field: below-cutoff. Rule: recorded pest or weed control at 125 g/ha strictly less than 80%. Subject: `Cc1cc(-c2cnc(NC3CCOCC3)nc2C(C)C)on1`
-- reply Satisfied

-- ask Identify whether the compound Cc1cc(-c2cnc(NC3CCCc4sc(Cl)cc43)nc2C(C)C)on1 (centres unmarked) records pest or weed control at 125 g/ha below 80%.
-- reply Satisfied

###

Tested on: Amaranthus retroflexus (AMARE)
Assay: Post-emergence glasshouse test, visual injury, AMARE
Format: in vivo
Settings: 336 h, Table 3, post-emergence, 125 g/ha, 14±1 days post application
metric-name: pest or weed control at 125 g/ha (%)
Answers are plain numbers, in %.

Reference set, count: 3
Cc1cc(-c2cnc(NCc3ccc(F)cc3)nc2C)on1 ... 95
Cc1cc(-c2cnc(NCc3ccc(F)cc3)nc2C2CCC2)on1 ... 30
Cc1cc(-c2cnc(NCc3ccccc3F)nc2C(F)(F)F)on1 ... 30

Answer for every listed entry: what is its pest or weed control at 125 g/ha? The entries follow.
1. Cc1cc(-c2cnc(NC3CCCCC3)nc2C(F)(F)F)on1
2. Cc1cc(-c2cnc(N3CCC(C(N)=O)CC3)nc2-c2ccc(C)s2)on1

-- reply
1: 70; 2: 20

###

System: Amaranthus retroflexus (AMARE)
Assay: Post-emergence glasshouse test, visual injury, AMARE
Assay type: in vivo
Settings: 336 h, Table 3, post-emergence, 125 g/ha, 14±1 days post application
metric-name: pest or weed control at 125 g/ha (%)
Give bare numbers, in %.

Cc1cc(-c2cnc(N)nc2C(F)(F)F)on1 [Compound 122] ... 20

Batch lookup, pest or weed control at 125 g/ha per entry.
1. Cc1cc(-c2cnc(NCc3ccc(F)cc3)nc2C(C)C)on1 [Compound 93]
2. Cc1cc(-c2cnc(NC3CCCC3)nc2C(F)F)on1 [Compound 119]
3. Cc1cc(-c2cnc(N3CCSCC3)nc2-c2ccc(C)o2)on1 [Compound 90]
4. Cc1cc(-c2cnc(NC(C)(C)C)nc2C(C)C)on1 [Compound 5]

-- reply
1: 100; 2: 50; 3: 30; 4: 100
